tested on: NCI-H460; assay: Antiproliferative activity against human NCI-H460 cells after 48 hrs by MTT assay; type: functional, cell-based; settings: NCI-H460, 48 h
quantity name: IC50 (µM)
Numbers only, in µM.

[[record]]
substance_smiles = "Cc1c(C(=O)c2ccccc2)oc2ccc(S(=O)(=O)Nc3ccc(F)cc3)cc12"
quantity_name = "IC50"
measurement = 22.6

[[record]]
substance_smiles = "CCOC(=O)c1oc2ccc(NS(=O)(=O)c3ccc(F)cc3)cc2c1C"
quantity_name = "IC50"
measurement = 8.89

[[record]]
substance_smiles = "CCOC(=O)c1oc2ccc(S(=O)(=O)Nc3ccc(F)cc3)cc2c1C"
quantity_name = "IC50"
measurement = 4.13

[[record]]
substance_smiles = "Cc1c(C(=O)c2ccccc2)oc2ccc(NS(=O)(=O)c3ccc(F)cc3)cc12"
quantity_name = "IC50"
measurement = 34.8


--- query ---
Request: Recorded IC50 for `Cc1c(C(=O)c2ccccc2)oc2ccc(NC(=O)c3ccc(F)cc3)cc12` , please?
Response: 15.6

====

tested on: HeLa; assay: Antiproliferative activity against human HeLa cells after 48 hrs by MTT assay; format: functional, cell-based
quantity name: IC50 (µM)
Give bare numbers, in µM.

The examples below pair each entry with its known result.
[[record]]
substance_smiles = "CCOC(=O)c1oc2ccc(S(=O)(=O)Nc3ccc(F)cc3)cc2c1C"
measurement = 9.37

[[record]]
substance_smiles = "Cc1c(C(=O)c2ccccc2)oc2ccc(NS(=O)(=O)c3ccc(F)cc3)cc12"
measurement = 10.6

[[record]]
substance_smiles = "Cc1c(C(=O)c2ccccc2)oc2ccc(S(=O)(=O)Nc3ccc(F)cc3)cc12"
measurement = 15.4

[[record]]
substance_smiles = "CCOC(=O)c1oc2ccc(NS(=O)(=O)c3ccc(F)cc3)cc2c1C"
measurement = 12.2


Would you kindly look at the next entry?
Request: So what's the measured IC50 for this one? `Cc1c(C(=O)c2ccccc2)oc2ccc(NC(=O)c3ccc(F)cc3)cc12`
Response: 18.8
